Target: Human cGAS amino acids 155-522 (Homo sapiens (Human), UniProt Q8N884)
Sequence (Q8N884 157-522): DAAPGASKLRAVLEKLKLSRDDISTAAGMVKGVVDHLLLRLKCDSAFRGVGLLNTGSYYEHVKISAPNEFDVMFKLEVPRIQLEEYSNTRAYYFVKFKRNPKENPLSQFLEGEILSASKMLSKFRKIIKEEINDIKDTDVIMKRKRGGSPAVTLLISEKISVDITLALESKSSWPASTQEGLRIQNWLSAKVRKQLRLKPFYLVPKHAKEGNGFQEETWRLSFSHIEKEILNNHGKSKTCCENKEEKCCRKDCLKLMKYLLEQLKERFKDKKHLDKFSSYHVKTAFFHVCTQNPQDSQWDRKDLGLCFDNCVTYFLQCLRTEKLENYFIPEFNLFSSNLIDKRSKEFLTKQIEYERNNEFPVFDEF
Test: cGAS biochemical activity assay (ATP remaining, Kinase-Glo Max luminescence)
Settings: human cGAS 155-522, ATP remaining (Kinase-Glo Max); read-out: cGAS IC50
Recorded IC50, one value per entry.

{"molecule": "Cc1[nH]c2c(-c3ccccc3)c(C(F)(F)F)nn2c(=O)c1C1OC(=O)c2ccccc21 (stereo not shown) [Compound C1168]", "target-desc": "Human cGAS amino acids 155-522 (Homo sapiens (Human), UniProt Q8N884)", "result-value": "20 to 250 µM"}

For COc1cccc(-c2c(C(F)(F)F)nn3c(=O)c(-c4nc5c(OC)cccc5o4)c(C)[nH]c23)c1 [Compound C1120] , what is its reported IC50? 20 to 250 µM

Using the record for COC[C@@H]1COC(c2c(C)[nH]c3c(-c4ccccc4)c(C(F)(F)F)nn3c2=O)=N1 [Compound C1184] , report its IC50. < 20 µM

Fill in: IC50 of COc1cccc2oc(-c3c(COC4COC4)[nH]c4c(-c5ccccc5)c(C(F)(F)F)nn4c3=O)nc12 [Compound C1152] is ___ < 20 µM

What value of IC50 has been recorded for this entry: COc1cc([N+](C)(C)C)cc2oc(-c3c(C)[nH]c4c(-c5ccccc5)c(C(F)(F)F)nn4c3=O)nc12 [Compound C1163] < 20 µM

Could you tell me which IC50 is on file for Cc1[nH]c2c(-c3ccccc3)c(C#N)nn2c(=O)c1-c1nc2c(OC3CC3)cccc2o1 [Compound C1277] ? < 20 µM

Look at this molecule and give its reported IC50. COC1(c2nnc(-c3c(C)[nH]c4c(-c5ccccc5)c(C(F)(F)F)nn4c3=O)o2)CCCC1 [Compound D1055] < 20 µM

* * *

Molecular target: Human cGAS amino acids 155-522 (Homo sapiens (Human), UniProt Q8N884)
Experiment: cGAS biochemical activity assay (ATP remaining, Kinase-Glo Max luminescence)
Settings: human cGAS 155-522, ATP remaining (Kinase-Glo Max); read-out: cGAS IC50
pIC50: −log10 of the molar value.
Listed here: items and their measured pIC50.

{"compound": "COc1cccc(S(=O)(=O)NC(=O)c2c(C)[nH]c3c(-c4ccccc4)c(C(F)(F)F)nn3c2=O)c1 [Compound A1125]", "pIC50": "> 4.70"}
{"compound": "COc1cccc2c1nc(-c1c(C)[nH]c3c(-c4ccccc4)c(C(F)(F)F)nn3c1=O)n2C1CCCCC1 [Compound C1176]", "pIC50": "3.60 to 4.70"}
{"compound": "Cc1[nH]c2c(-c3ccccc3)c(C(F)(F)F)nn2c(=O)c1C(=O)Nc1cccc(S(C)(=O)=O)c1 [Compound A1084]", "pIC50": "> 4.70"}
{"compound": "CSc1cccc2oc(-c3c(C)[nH]c4c(-c5ccccc5)c(C#N)nn4c3=O)nc12 [Compound C1204]", "pIC50": "> 4.70"}
{"compound": "COc1cccc2nc(-c3c(C)[nH]c4c(-c5ccccc5)c(C(F)(F)F)nn4c3=O)cn12 [Compound C1057]", "pIC50": "> 4.70"}

Entry COCC1CCCCN1c1nnc(-c2c(C)[nH]c3c(-c4ccccc4)c(C(F)(F)F)nn3c2=O)o1 (stereo not shown) [Compound D1060] : reported pIC50 = ? 3.60 to 4.70

Entry Cc1[nH]c2c(-c3ccccc3)c(C(F)(F)F)nn2c(=O)c1C(=O)Nc1cccc2c1OCCC2 [Compound A1107] has what pIC50? > 4.70
